# Test system: MS2 coat protein
# Protocol: apparent KD of MS2 coat protein; designed switch direction (-1 OFF switch, 1 ON switch): -1; higher = weaker reporter binding
# Measurement Parameters: input ligand: none
Measurement Name: apparent KD of MS2 coat protein (nM)
Numeric only. Scale: nM

Example sequences with recorded apparent KD of MS2 coat protein:
## Task Value lookup for apparent KD of MS2 coat protein; key = UACAUGAGGAUCACCCAUGUUUUAUCAUGUGUAAUAAUAAUGUAGGAUAUGUAUUUAUUUAUUUAACAGAAGGACAAUAAUAAA [JMF's solution 3] (Eterna round: R96, puzzle: Exclusion NG 3)
## Result 423

## Task Quick one: apparent KD of MS2 coat protein for UCUUACUGAGGAUAUACAUAGAUUUACAUGAGGAUCACCCAUGUUCCUCUAUGUAUAAAUGUAGAAGGCAGAAGAU [Mat - Exclusion 5 - JL Mod - D54] (Eterna round: R97, puzzle: Exclusion 5) ?
## Result 18

---
## Task Record request: apparent KD of MS2 coat protein value, item AAUACAAGCUAUUGAUCCCACAUGAGGAUCACCCAUGUACCUGGCCGUGAGACCAGGUUUACAAUAGCUCGUCUUAU [Sensor-V1 #48] (Eterna round: R97, puzzle: Sensor, turn-off variant 1)
## Result 93.8

## Task If you can, please state the reported apparent KD of MS2 coat protein value of UGAUCAGACCGAGGAUAUAUAUGGAGGACGCACGUGAGUGCGUCCACUACAUGAGGAUCACCCAUGUAGAAGGCGGUCUGAUCU [JL ENG2 1.98] (Eterna round: R96, puzzle: Exclusion NG 2) .
## Result 13.1

## Task # apparent KD of MS2 coat protein lookup, item ACAUGAGGAUCACCCAUGUAAUGAAGGGUACUAUAUUAAACGUAGGAUAUCGAUGUAAGUUUGUACGAGAAGGACGAUUGCCUU [JR_ExcNG3_Sub052] (Eterna round: R96, puzzle: Exclusion NG 3)
## Result 84.1

---

# System: MS2 coat protein
# Protocol: apparent KD of MS2 coat protein; designed switch direction (-1 OFF switch, 1 ON switch): -1; higher = weaker reporter binding
# Measurement Parameters: input ligand: none
# apparent KD of MS2 coat protein annotations
Dear colleague, please return just the value in nM, with no unit written.

# annotated cases, reported apparent KD of MS2 coat protein shown
## Task // query apparent KD of MS2 coat protein value for entry UCCUAACAUGAGGAUCACCCAUGUCAGGAUAUCUACGUCAGAACCACGUAUGUAGGCGAGAGAAGGGACAGAGG [EX1 C.14] (Eterna round: R97, puzzle: Exclusion 1)
## Result 17.4

## Task Fill in the blank: the reported apparent KD of MS2 coat protein of CUCAUUCGAGGAUAUGCAGAAUGGGUCCAAUCAUAAGACAUACAUGAGGAUCACCCAUGUAGAAGGCGGCCAUC [Eternabot (L1) Solution 59] (Eterna round: R97, puzzle: Exclusion 2) is ____.
## Result 25.6

## Task Which apparent KD of MS2 coat protein reading was recorded for the sequence CAGACACAUGAGGAUCACCCAUGUAAGGAUAUGAACUGUGGUAACGGAGCCAGCGGGUUCAGAAGGUGCGUGAC [Eternabot (L1) Solution 19] (Eterna round: R97, puzzle: Exclusion 1) ?
## Result 91.4

## Task Bench note: what apparent KD of MS2 coat protein did UUAUUACAAGCAAGAUCCCACAUGAGGAUCACCCAUGUGCUCGUCUUAUAAGGUACUGUGACGAAAGUCACGGUACC [Sensor 3, v1 - 100] (Eterna round: R96, puzzle: Sensor v3, turn-off variant 1) show?
## Result 24.6

## Task Please report the recorded apparent KD of MS2 coat protein for CUUGUUUAUGUAGGAUAUGCCUGGCGUGCCUUUGCAGAAGGACAUGAGGAUCACCCAUGUAACAUGAGGCUCACCCAUGUCGCG [salish99_ExNG1_r04_105] (Eterna round: R96, puzzle: Exclusion NG 1) .
## Result 327

## Task For the sequence shown here, UUUAAGGUAAUUAAGAUCACAUGAGGAUCACCCAUGUAUAUAUAGGAUAUCAGCUCGUUUAGAGCUGAGAAGGAUAUAUACAUA [ExNG3/6-C2] (Eterna round: R96, puzzle: Exclusion NG 3) , give the reported apparent KD of MS2 coat protein.
## Result 136

More entries:
## Task What value of measured apparent KD of MS2 coat protein is listed for GAUUAACAUGAGGAUCACCCAUGUGAGGAUAUGGAAUGGCUCAUUGUCUGAUUUCCUUCUAGAAGGCACAUCUU [1986#4c] (Eterna round: R97, puzzle: Exclusion 1) ?
## Result 63.3

## Task Entry under review: GAUCCGAUUGUCAGGAUAUUCAAAACGGCGCAAAAGAAGAAGGGACAUGAGGAUCACCCAUGUAUACGCCACCA [Usisbima] (Eterna round: R97, puzzle: Brourd's mod of Exclusion 4) . Reported apparent KD of MS2 coat protein?
## Result 332

## Task Reported apparent KD of MS2 coat protein for UAUUAGUAAGGAUAUGAGUCGUAGAACAAUAGUACUACGUCUCAGAAGGUACAUGAGGAUCACCCAUGUUCAUU [Mod of Fisker 2 - Jieux - Exclusion 4] (Eterna round: R97, puzzle: Exclusion 4) : what is it?
## Result 19
